- System: tracheo-bronchial mucus secretion
- protocolNotes: Uranine secretion in BAL (mucus secretion)
- Type: in vivo, Albino Swiss female mice
- testContext: 50 mg/kg os
Readings of % increase of dyestuff secretion in BAL (vs. untreated animals), uranine for the listed compounds
Write it as a number; the unit % goes unstated.

compound="COc1ccccc1OCC1COC(CSCC(=O)O)O1 (stereo not drawn)" assayresult=52

We next turn to a different compound, shown below.
Give its % increase of dyestuff secretion in BAL (vs. untreated animals), uranine value. Item: CN(Cc1cc(Br)cc(Br)c1N)C1CCCCC1 [Substance E, bromexine, reference compound] 50

---

- System: tracheo-bronchial mucus secretion
- protocolNotes: Red phenol secretion in BAL (mucus secretion)
- Format: in vivo, Albino Swiss male mice
- testContext: 100 mg/kg os
measureName: % increase of dyestuff secretion in BAL (vs. untreated animals), red phenol (%)
Please state the figure in %; there is no need to write the unit.

Previously resolved entries follow.
compound="COc1ccccc1OCC1COC(CSCC(=O)O)O1 (stereo not drawn) [Substance C]" testtarget="tracheo-bronchial mucus secretion" unitspec=% assayresult=143
compound="CC1=CCC(C(C)(C)O)CC1O (stereo not drawn) [Substance F, sobrerol, reference compound]" testtarget="tracheo-bronchial mucus secretion" unitspec=% assayresult=69
compound="CN(Cc1cc(Br)cc(Br)c1N)C1CCCCC1 [Substance E, bromexine, reference compound]" testtarget="tracheo-bronchial mucus secretion" unitspec=% assayresult=83
compound="COc1ccccc1OCC1COC(CSCC(=O)NCc2cccnc2)O1 (stereo not drawn) [Substance D]" testtarget="tracheo-bronchial mucus secretion" unitspec=% assayresult=179
compound="COc1ccccc1OCCSCC(=O)NCc1cccnc1 [Substance B]" testtarget="tracheo-bronchial mucus secretion" unitspec=% assayresult=126

With those in mind, consider the next compound.
Which measured % increase of dyestuff secretion in BAL (vs. untreated animals), red phenol value corresponds to COc1ccccc1OCCSCC(=O)O [Substance A] ? 104

---

- System: tracheo-bronchial mucus secretion
- protocolNotes: Uranine secretion in BAL (mucus secretion)
- Type: in vivo, Albino Swiss female mice
- testContext: 50 mg/kg os
measureName: % increase of dyestuff secretion in BAL (vs. untreated animals), uranine (%)
Write the value in % as a bare number.

compound="COc1ccccc1OCC1COC(CSCC(=O)NCc2cccnc2)O1 (stereo not shown) [Substance D]" testtarget="tracheo-bronchial mucus secretion" assayresult=132

Could you share which % increase of dyestuff secretion in BAL (vs. untreated animals), uranine value was measured for COc1ccccc1OCCSCC(=O)O [Substance A] ? 98

Recorded % increase of dyestuff secretion in BAL (vs. untreated animals), uranine for COc1ccccc1OCCSCC(=O)NCc1cccnc1 [Substance B] , please? 140

Would you kindly share the measured % increase of dyestuff secretion in BAL (vs. untreated animals), uranine for CC1=CCC(C(C)(C)O)CC1O (stereo not shown) [Substance F, sobrerol, reference compound] ? 54
